This collection of values is drawn from patent US11040027B2.

Reported Selectivity BRaf/MKK4 values for a set of molecules
Target: UniProtKB P15056
Assay: KINOMEscan competition binding assay, selectivity BRaf versus MKK4
Conditions: Test conc. 0.1 μM; ratio of percent of control; N/E* per footnote
Protocol: The assay was performed by combining three components: DNA-tagged kinase; immobilized ligand; and a test compound. The ability of the test compound to compete with the immobilized ligand was measured via quantitative PCR of the DNA tag. The technology is described in detail in Fabian, M. A. et al. A small molecule-kinase interaction map for clinical kinase inhibitors. Nat. […] Nat. The test compounds were provided as 10 mM stock solutions. […]
measured.quantity: Selectivity BRaf/MKK4

INSERT INTO assay_data (molecule, measured_quantity, measured) VALUES
  ('CCCS(=O)(=O)Nc1ccc(F)c(C(=O)c2c[nH]c3ncc(-c4cnc5ccccc5c4)cc23)c1F [Example 6]', 'Selectivity BRaf/MKK4', 0.1),
  ('CCCS(=O)(=O)Nc1ccc(F)c(C(=O)c2c[nH]c3ncc(-c4ccc(F)cc4C)cc23)c1F [Example 12]', 'Selectivity BRaf/MKK4', 7.8),
  ('CCCS(=O)(=O)Nc1ccc(F)c(C(=O)c2c[nH]c3ncc(-c4ccc(C#N)cc4)cc23)c1F [Example 4]', 'Selectivity BRaf/MKK4', 2.8),
  ('CCCS(=O)(=O)Nc1cc(C)cc(C(=O)c2c[nH]c3ncc(-c4ccc(Cl)cc4)cc23)c1 [Example 24]', 'Selectivity BRaf/MKK4', 0.9),
  ('CCCS(=O)(=O)Nc1cccc(C(=O)c2c[nH]c3ncc(-c4ccc(Cl)cc4)cc23)c1C [Example 25]', 'Selectivity BRaf/MKK4', 1.0),
  ('CCCS(=O)(=O)Nc1ccc(F)c(C(=O)c2c[nH]c3ncc(-c4ccc(OCOC)cc4Cl)cc23)c1F [Example 102]', 'Selectivity BRaf/MKK4', 17);

###

Reported Selectivity BRaf/MKK4 by item:
Biological target: BRaf (Homo sapiens)
Sequence (P15056 whole entry): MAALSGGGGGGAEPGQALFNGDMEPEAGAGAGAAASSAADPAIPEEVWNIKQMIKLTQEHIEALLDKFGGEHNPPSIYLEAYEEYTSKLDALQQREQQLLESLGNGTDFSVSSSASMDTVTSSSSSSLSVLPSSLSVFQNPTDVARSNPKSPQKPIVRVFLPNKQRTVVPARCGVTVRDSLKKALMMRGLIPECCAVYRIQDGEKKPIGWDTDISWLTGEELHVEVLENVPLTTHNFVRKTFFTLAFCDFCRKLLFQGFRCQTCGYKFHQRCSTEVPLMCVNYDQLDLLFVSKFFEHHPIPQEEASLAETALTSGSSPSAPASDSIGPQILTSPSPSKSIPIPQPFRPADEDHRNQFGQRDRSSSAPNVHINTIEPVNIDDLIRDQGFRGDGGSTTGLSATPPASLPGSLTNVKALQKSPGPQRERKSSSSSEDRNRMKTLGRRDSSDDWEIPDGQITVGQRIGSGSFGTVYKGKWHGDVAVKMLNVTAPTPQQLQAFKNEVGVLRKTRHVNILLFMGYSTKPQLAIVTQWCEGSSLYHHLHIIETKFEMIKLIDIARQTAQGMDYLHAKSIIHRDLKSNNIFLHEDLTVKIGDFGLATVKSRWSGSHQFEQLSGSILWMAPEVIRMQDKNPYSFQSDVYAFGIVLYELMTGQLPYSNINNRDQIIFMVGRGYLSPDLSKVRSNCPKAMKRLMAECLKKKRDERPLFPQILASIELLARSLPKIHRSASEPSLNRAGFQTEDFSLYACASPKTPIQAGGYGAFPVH
Assay: KINOMEscan competition binding assay, selectivity BRaf versus MKK4
Details: Test conc. 0.1 μM; ratio of percent of control; N/E* per footnote
measured.quantity: Selectivity BRaf/MKK4

INSERT INTO assay_data (structure_smiles, measured_quantity, measured) VALUES
  ('CCCS(=O)(=O)Nc1ccc(F)c(C(=O)c2c[nH]c3ncc(-c4ccc(F)cc4Cl)cc23)c1F', 'Selectivity BRaf/MKK4', 4.7),
  ('CCCS(=O)(=O)Nc1ccc(F)c(C(=O)c2c[nH]c3ncc(-c4ccc(O)cc4Cl)cc23)c1F', 'Selectivity BRaf/MKK4', 20),
  ('CS(=O)(=O)Nc1cccc(C(=O)c2c[nH]c3ncc(-c4ccc5c(c4)OCCO5)cc23)c1F', 'Selectivity BRaf/MKK4', 18.8);

###

Molecular target: MEKK2 (Homo sapiens)
Sequence (Q9Y2U5 1-619): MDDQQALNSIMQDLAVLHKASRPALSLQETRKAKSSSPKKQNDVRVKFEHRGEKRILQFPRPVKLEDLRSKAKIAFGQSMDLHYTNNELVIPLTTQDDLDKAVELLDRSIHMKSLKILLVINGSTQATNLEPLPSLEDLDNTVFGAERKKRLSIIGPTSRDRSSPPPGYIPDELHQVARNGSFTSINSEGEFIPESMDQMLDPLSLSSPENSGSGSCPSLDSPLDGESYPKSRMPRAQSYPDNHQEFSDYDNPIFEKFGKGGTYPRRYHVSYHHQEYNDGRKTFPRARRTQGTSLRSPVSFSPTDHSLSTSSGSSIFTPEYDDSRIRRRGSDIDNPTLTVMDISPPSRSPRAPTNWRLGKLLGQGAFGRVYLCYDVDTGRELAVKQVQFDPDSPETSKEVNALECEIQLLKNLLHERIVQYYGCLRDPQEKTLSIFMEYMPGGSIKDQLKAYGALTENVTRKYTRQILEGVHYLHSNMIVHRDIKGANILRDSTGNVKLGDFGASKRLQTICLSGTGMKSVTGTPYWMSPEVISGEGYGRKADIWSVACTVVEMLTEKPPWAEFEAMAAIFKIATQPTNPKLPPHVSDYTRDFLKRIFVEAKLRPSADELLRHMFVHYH
measured.quantity: IC50

INSERT INTO results (structure_smiles, measured) VALUES
  ('CCCS(=O)(=O)Nc1ccc(F)c(C(=O)c2c[nH]c3ncc(-c4ccc(Cl)cc4)cc23)c1Cl', '> 10 µM'),
  ('CS(=O)(=O)Nc1cccc(C(=O)c2c[nH]c3ncc(-c4cc5c(cc4Cl)OCO5)cc23)c1F', '1 to 10 µM'),
  ('COc1ccc(-c2cnc3[nH]cc(C(=O)c4cccc(NS(C)(=O)=O)c4F)c3c2)c(Cl)c1', '1 to 10 µM'),
  ('CCCS(=O)(=O)Nc1ccc(F)c(C(=O)c2c[nH]c3ncc(-c4ccc5c(c4)OCO5)cc23)c1F', '> 10 µM'),
  ('CS(=O)(=O)Nc1cccc(C(=O)c2c[nH]c3ncc(-c4ccc5c(c4)OCCO5)cc23)c1F', '> 10 µM'),
  ('CS(=O)(=O)Nc1cccc(C(=O)c2c[nH]c3ncc(-c4cc5c(cc4Cl)OCCO5)cc23)c1F', '> 10 µM'),
  ('CCCCS(=O)(=O)Nc1cccc(C(=O)c2c[nH]c3ncc(-c4ccc5c(c4)OCCO5)cc23)c1F', '1 to 10 µM');

###

# Selectivity MKK7/MKK4 per record follows
Biological target: MKK7 (Homo sapiens, UniProt O14733)
Sequence (O14733 1-419): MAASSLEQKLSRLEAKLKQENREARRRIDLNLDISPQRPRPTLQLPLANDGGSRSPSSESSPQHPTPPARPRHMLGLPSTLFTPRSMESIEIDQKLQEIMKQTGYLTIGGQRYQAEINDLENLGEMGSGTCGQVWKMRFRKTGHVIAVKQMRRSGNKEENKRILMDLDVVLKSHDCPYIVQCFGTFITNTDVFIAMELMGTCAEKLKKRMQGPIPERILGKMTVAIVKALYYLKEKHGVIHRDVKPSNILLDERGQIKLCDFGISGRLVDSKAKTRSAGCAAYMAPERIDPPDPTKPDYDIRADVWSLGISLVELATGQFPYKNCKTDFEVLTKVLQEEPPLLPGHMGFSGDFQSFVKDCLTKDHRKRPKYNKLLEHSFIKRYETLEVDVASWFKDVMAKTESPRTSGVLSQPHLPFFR
Experiment: KINOMEscan competition binding assay, selectivity MKK7 versus MKK4
Settings: Test conc. 0.1 μM; ratio of percent of control; N/E* per footnote
measured.quantity: Selectivity MKK7/MKK4

INSERT INTO results (compound, measured_quantity, measured) VALUES
  ('CCCS(=O)(=O)Nc1ccc(F)c(C(=O)c2c[nH]c3ncc(-c4cc5c(cc4Cl)OCCO5)cc23)c1F [Example 44]', 'Selectivity MKK7/MKK4', 18),
  ('CCCS(=O)(=O)Nc1cccc(C(=O)c2c[nH]c3ncc(-c4ccc(Cl)cc4)cc23)c1C [Example 25]', 'Selectivity MKK7/MKK4', 1.0),
  ('CCCS(=O)(=O)Nc1ccc(F)c(C(=O)c2c[nH]c3ncc(-c4ccc(F)cc4C)cc23)c1F [Example 12]', 'Selectivity MKK7/MKK4', 10),
  ('CCCS(=O)(=O)Nc1ccc(F)c(C(=O)c2c[nH]c3ncc(-c4ccc(OCCOC)cc4Cl)cc23)c1F [Example 98]', 'Selectivity MKK7/MKK4', 20),
  ('CCCS(=O)(=O)Nc1ccc(F)c(C(=O)c2c[nH]c3ncc(-c4cccc(C#N)c4)cc23)c1F [Example 14]', 'Selectivity MKK7/MKK4', 10),
  ('CCCS(=O)(=O)Nc1ccc(F)c(C(=O)c2c[nH]c3ncc(-c4ccc(O)cc4Cl)cc23)c1F [Example 94]', 'Selectivity MKK7/MKK4', 22),
  ('CS(=O)(=O)Nc1cccc(C(=O)c2c[nH]c3ncc(-c4cc5c(cc4Cl)OCO5)cc23)c1F [Example 47]', 'Selectivity MKK7/MKK4', 9.7),
  ('COc1ccc(-c2cnc3[nH]cc(C(=O)c4cccc(NS(C)(=O)=O)c4F)c3c2)c(Cl)c1 [Example 46]', 'Selectivity MKK7/MKK4', 10);

###

Target: JNK1 (Homo sapiens)
Sequence (P45983 1-384 isoform P45983-2): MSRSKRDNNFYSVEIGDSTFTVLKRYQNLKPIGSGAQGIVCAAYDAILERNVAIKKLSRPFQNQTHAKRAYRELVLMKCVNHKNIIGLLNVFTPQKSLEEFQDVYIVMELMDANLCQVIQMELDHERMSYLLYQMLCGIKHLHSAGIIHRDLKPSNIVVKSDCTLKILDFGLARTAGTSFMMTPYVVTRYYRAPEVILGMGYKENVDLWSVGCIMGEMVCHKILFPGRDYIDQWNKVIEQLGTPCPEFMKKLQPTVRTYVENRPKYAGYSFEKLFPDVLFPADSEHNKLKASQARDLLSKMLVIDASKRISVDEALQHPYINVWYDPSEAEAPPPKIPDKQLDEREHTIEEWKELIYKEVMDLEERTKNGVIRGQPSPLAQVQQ
Experiment: KINOMEscan competition binding assay, selectivity JNK1 versus MKK4
Conditions: Test conc 10 μM; ratio of percent of control
Form field: Selectivity JNK1/MKK4 (one value per entry).
measured.quantity: Selectivity JNK1/MKK4

INSERT INTO assay_data (structure_smiles, measured_quantity, measured) VALUES
  ('CCCS(=O)(=O)Nc1ccc(F)c(C(=O)c2c[nH]c3ncc(-c4cnc5ccccc5c4)cc23)c1F', 'Selectivity JNK1/MKK4', '>100'),
  ('CCCS(=O)(=O)Nc1ccc(F)c(C(=O)c2c[nH]c3ncc(-c4cccc(C#N)c4)cc23)c1F', 'Selectivity JNK1/MKK4', 23),
  ('CCCS(=O)(=O)Nc1ccc(F)c(C(=O)c2c[nH]c3ncc(-c4ccc5c(c4)OCCO5)cc23)c1F', 'Selectivity JNK1/MKK4', '>100'),
  ('CCCS(=O)(=O)Nc1ccc(F)c(C(=O)c2c[nH]c3ncc(-c4ccccc4O)cc23)c1F', 'Selectivity JNK1/MKK4', '>10'),
  ('CCCS(=O)(=O)Nc1ccc(F)c(C(=O)c2c[nH]c3ncc(-c4ccc(SC)cc4)cc23)c1F', 'Selectivity JNK1/MKK4', '>100'),
  ('CCCS(=O)(=O)Nc1ccc(F)c(C(=O)c2c[nH]c3ncc(-c4ccc(C#N)cc4)cc23)c1F', 'Selectivity JNK1/MKK4', '>400');
